The origin of these recorded values is PubChem BioAssay (NCATS).

test: Quantitative High-Throughput drug screen in 47 multiple myeloma cell lines against the NCATS MIPE library collection: EJM_DSMZ cell viability assay (AID 1918926; note: nearly all actives have a fitted effect of over 30% in size); settings: EJM myeloma cell viability, CellTiter-Glo ATP, 48 h; series mostly up to 45.8 µM
Inconclusive results are not listed. Active and inactive are the calls of the source. Calls come from the whole dose curve; as a rule, active = well fitted cell-killing curve with a large enough effect; inconclusive = small, poorly fitted or top-dose-only effect, or effect the other way; inactive = no such curve, though single readings can be large or run the other way.
Choose one outcome from this list and give only that: active, inactive

Cc1ccccc1C(C(=O)NC1CCCC1)N(C(=O)Cn1cnc2ccccc21)c1cccc(F)c1 (centres undefined) ... inactive
COc1cc2nccc(Oc3ccc(NC(=O)NC4CC4)c(Cl)c3)c2cc1C(N)=O ... active
COc1ccccc1-c1cccc(-c2c(O)c3cc(C#N)c(Cl)cc3[nH]c2=O)c1 ... inactive
Fc1ccc(Cl)cc1-c1nc(Nc2ccncc2)c2nccnc2n1 ... active
N#Cc1ccc(C(c2ccc(C#N)cc2)n2cncn2)cc1 ... inactive

Query :: Recorded test call requested for CCC(=O)N[C@H]1CC[C@H](C(=O)N(C)c2ccc(-c3nc4ccccc4o3)cc2)C1
Result :: active

Query :: Recorded test call requested for CN(C)C(=O)c1ccc(S(=O)(=O)c2ccc(NC(=O)[C@@](C)(O)C(F)(F)F)c(Cl)c2)cc1
Result :: active

Query :: Recorded test call requested for COc1ccc(COc2cc3oc(=O)c4cc(C(C)O)ccc4c3cc2OC)cc1 (centres undefined)
Result :: active

Query :: Recorded test call requested for COc1ccc(-c2ccc3c(N4CCOCC4)nc(N4C[C@@H](C)O[C@@H](C)C4)nc3n2)cc1CO
Result :: active

Query :: Recorded test call requested for CC(=O)Oc1ccccc1C(=O)O
Result :: active
